# credit: patent US7166440B2

test system: monoclonal antibody of clone C-2 (anti-dioxin antibody); experiment: Competitive EIA: inhibition of binding of clone C-2 monoclonal antibody to solid-phase antigen by free dioxin; design: species or system mouse; conditions: solid-phase antigen immunogen 2, dioxin compound final concentration 5×10^−7 M
Values of Inhibition rate greater than or equal to 20% map to 1 (yes); values below map to 0 (no).

Does the reported Inhibition rate for `Clc1cc2oc3c(Cl)c(Cl)c(Cl)c(Cl)c3c2c(Cl)c1Cl` fall at or above the 20% mark?
1 (yes)

Record `Clc1cc2oc3cc(Cl)c(Cl)cc3c2cc1Cl` ; criterion: Inhibition rate no lower than 20%. Met?
0 (no)

Could you verify whether the entry `Clc1cc2c(c(Cl)c1Cl)Oc1c(cc(Cl)c(Cl)c1Cl)O2` shows Inhibition rate of no less than 20%?
1 (yes)

Hello, I need to know if `Clc1cc2oc3c(Cl)c(Cl)c(Cl)c(Cl)c3c2cc1Cl` has measured Inhibition rate not below 20%. Thanks!
0 (no)

Confirm if Inhibition rate reported for the compound `Clc1c(Cl)c(Cl)c2c(c1Cl)Oc1c(Cl)c(Cl)c(Cl)c(Cl)c1O2` is 20% or above.
0 (no)

Is Inhibition rate for `Clc1cc2c(oc3c(Cl)c(Cl)c(Cl)c(Cl)c32)c(Cl)c1Cl` at or above 20%?
0 (no)

Decide: is the reported value of Inhibition rate for `Clc1cc2c(oc3c(Cl)c(Cl)c(Cl)cc32)c(Cl)c1Cl` equal to or greater than 20%?
1 (yes)

Is it the case that `Clc1cc2c(cc1Cl)Oc1c(Cl)c(Cl)c(Cl)c(Cl)c1O2` has Inhibition rate reaching or exceeding 20%?
0 (no)

Test whether the compound `Clc1cc2c(cc1Cl)Oc1c(cc(Cl)c(Cl)c1Cl)O2` records Inhibition rate of 20% or higher.
1 (yes)

Please check the record `Clc1cc2c(c(Cl)c1Cl)Oc1c(Cl)c(Cl)c(Cl)c(Cl)c1O2` and state if its Inhibition rate is at or above 20%.
0 (no)

Dear colleague, could you confirm whether `Clc1cc2oc3cc(Cl)c(Cl)c(Cl)c3c2cc1Cl` has Inhibition rate at or above 20%?
0 (no)

Please indicate if the recorded Inhibition rate for `Clc1cc2oc3c(Cl)c(Cl)c(Cl)cc3c2cc1Cl` meets or exceeds 20%.
1 (yes)

Is the recorded value of Inhibition rate equal to or greater than 20% for this compound? `Clc1cc2c(oc3cc(Cl)c(Cl)c(Cl)c32)c(Cl)c1Cl`
0 (no)

Could you please find out whether `Clc1c(Cl)c(Cl)c2c(oc3c(Cl)c(Cl)c(Cl)c(Cl)c32)c1Cl` has Inhibition rate that meets 20% or exceeds it?
0 (no)

Hi, just wondering whether `Clc1cc2c(cc1Cl)Oc1cc(Cl)c(Cl)cc1O2` shows Inhibition rate of 20% or higher.
0 (no)

Hi team, for `Clc1cc2c(c(Cl)c1Cl)Oc1cc(Cl)c(Cl)c(Cl)c1O2` , is the recorded Inhibition rate at or above 20%?
0 (no)

Assess whether reported Inhibition rate for `Clc1cc2oc3cc(Cl)c(Cl)c(Cl)c3c2c(Cl)c1Cl` sits at 20% or higher.
1 (yes)

====

Exercise: for every item that follows, state its recorded Inhibition rate.
Tested on: monoclonal antibody of clone C-1 (anti-dioxin antibody)
Test: Competitive EIA: inhibition of binding of clone C-1 monoclonal antibody to solid-phase antigen by free dioxin
Parameters: species or system mouse
Conditions: solid-phase antigen * (haptenized product of 6-(2,4,5-trichlorophenoxy) hexanoic acid amide derivative IIa), dioxin compound 5×10^−7 M
Protocol: Using various monoclonal antibodies, the specificity of the monoclonal antibodies to dioxin isomers was examined. The monoclonal antibodies were prepared in the following manner. […] To evaluate the specificity of the monoclonal antibody was performed according to the following principles. […] This reduction of the binding of the monoclonal antibody to the solid-phase antigen can be measured by color development method. […]
The answer is to be given in %; state only the numeric part.

// field: Inhibition rate; key: `Clc1cc2c(cc1Cl)Oc1c(cc(Cl)c(Cl)c1Cl)O2` ; value = 46.2

Record `Clc1cc2oc3cc(Cl)c(Cl)c(Cl)c3c2cc1Cl` , field Inhibition rate: 27.1

Item: `Clc1cc2c(cc1Cl)Oc1cc(Cl)c(Cl)cc1O2` | Inhibition rate: 7.4

Value of measured Inhibition rate for the entry `Clc1cc2oc3c(Cl)c(Cl)c(Cl)cc3c2cc1Cl` : 40.1

Recorded Inhibition rate (compound `Clc1cc2c(oc3cc(Cl)c(Cl)c(Cl)c32)c(Cl)c1Cl` ): 7.0

According to the records, this compound `Clc1cc2oc3c(Cl)c(Cl)c(Cl)c(Cl)c3c2c(Cl)c1Cl` displays Inhibition rate of 7.1

For this compound ( `Clc1cc2c(c(Cl)c1Cl)Oc1cc(Cl)c(Cl)c(Cl)c1O2` ), measured Inhibition rate is −0.3

Please fill in: Inhibition rate reported for `Clc1cc2oc3cc(Cl)c(Cl)c(Cl)c3c2c(Cl)c1Cl` = 34.7

Query `Clc1cc2c(oc3c(Cl)c(Cl)c(Cl)c(Cl)c32)c(Cl)c1Cl` yields Inhibition rate of 7.5

response.value for `Clc1cc2c(oc3c(Cl)c(Cl)c(Cl)cc32)c(Cl)c1Cl` (field: Inhibition rate) = 44.8

In plain terms, `Clc1cc2c(c(Cl)c1Cl)Oc1c(cc(Cl)c(Cl)c1Cl)O2` has a documented Inhibition rate of 19.1

Inhibition rate for `Clc1c(Cl)c(Cl)c2c(oc3c(Cl)c(Cl)c(Cl)c(Cl)c32)c1Cl` is 27.0

Memo: `Clc1cc2oc3c(Cl)c(Cl)c(Cl)c(Cl)c3c2cc1Cl` , reported Inhibition rate: −1.5

The value of Inhibition rate measured for the compound `Clc1cc2c(cc1Cl)Oc1c(Cl)c(Cl)c(Cl)c(Cl)c1O2` turned out to be 14.1

Entry `Clc1cc2c(c(Cl)c1Cl)Oc1c(Cl)c(Cl)c(Cl)c(Cl)c1O2` — recorded Inhibition rate = 1.4

In plain terms, `Clc1c(Cl)c(Cl)c2c(c1Cl)Oc1c(Cl)c(Cl)c(Cl)c(Cl)c1O2` has a documented Inhibition rate of 1.6

Per the records, this compound ( `Clc1cc2oc3cc(Cl)c(Cl)cc3c2cc1Cl` ) has Inhibition rate equal to 8.4
